Measured LD50 at 504 h by item
experiment: in vivo; conditions: mouse, ip, DDY mice, single dose, i.p., dissolved in dimethylsulfoxide, day 21, read-out: LD50 i.p.
MEASURE: LD50 at 504 h

>>> df
                               query_smiles  recorded_result
0  CCC(=O)Oc1cc(OC)cc(OC)c1C(=O)/C=C/c1ccc(OC)cc1      > 500 mg/kg
1  COc1cc(O)c(C(=O)/C=C/c2ccc(C#N)cc2)c(OC)c1      > 500 mg/kg
2  CCOC(=O)Oc1cc(OC)cc(OC)c1C(=O)/C=C/c1ccc(OC)cc1      > 500 mg/kg
3  CCOc1cc(O)c(C(=O)/C=C/c2ccc(OC)cc2)c(OC)c1     > 1000 mg/kg
4  CCOc1ccc(/C=C/C(=O)c2c(O)cc(OCC)cc2OCC)cc1     > 1000 mg/kg

###

test: in vivo; settings: mouse, ip, DDY mice, single dose, i.p., dissolved in dimethylsulfoxide, day 21, read-out: LD50 i.p.
MEASURE: LD50 at 504 h

>>> df
                                query_smiles  recorded_result
 0  CCOc1ccc(/C=C/C(=O)c2c(OC)cc(OC)cc2OC(=O)CC)cc1     > 1000 mg/kg
 1  CCOc1cc(O)c(C(=O)/C=C/c2ccc(OC)cc2)c(OCC)c1     > 1000 mg/kg
 2  COc1cc(O)c(C(=O)/C=C/c2ccc(C)cc2)c(OC)c1     > 1000 mg/kg
 3   CCOc1cc(O)c(C(=O)C=Cc2ccc(C)o2)c(OCC)c1      > 500 mg/kg
 4  CCOc1cc(OC)cc(O)c1C(=O)/C=C/c1ccc(OC)cc1      > 500 mg/kg
 5   CCC(=O)Oc1cc(OC)cc(OC)c1C(=O)C=Cc1ccco1      > 500 mg/kg
 6  COc1cc(O)c(C(=O)C=Cc2ccc3c(c2)OCO3)c(OC)c1     > 1000 mg/kg
 7  COc1ccc(/C=C/C(=O)c2c(OC)cc(OC)cc2OC(=O)c2cccnc2)cc1      > 500 mg/kg
 8  COc1cc(O)c(C(=O)/C=C/c2ccc(SC)cc2)c(OC)c1     > 1000 mg/kg
 9  CCCOc1cc(OC)cc(OC(=O)CC)c1C(=O)/C=C/c1ccc(OC)cc1      > 500 mg/kg
10  CCC(=O)Oc1cc(OC)cc(OC)c1C(=O)C=Cc1ccc(C)o1      > 500 mg/kg

###

We begin with a simple list: items and their reported LD50 at 504 h.
test: in vivo; conditions: mouse, po, DDY mice, single dose, p.o., suspended in 0.5% carboxymethyl cellulose, day 21, read-out: LD50 p.o.
MEASURE: LD50 at 504 h

In [3]: df
Out[3]:
                               query_smiles        measure  recorded_result
0  COc1cc(O)c(C(=O)/C=C/c2ccc(OCc3ccccc3)c(OC)c2)c(OC)c1  LD50 at 504 h     > 1500 mg/kg
1  CCC(=O)Oc1cc(OC)cc(OC)c1C(=O)/C=C/c1ccc(SC)cc1  LD50 at 504 h     > 5000 mg/kg
2  CCOc1ccc(/C=C/C(=O)c2c(O)cc(OCC)cc2OC)cc1  LD50 at 504 h     > 1000 mg/kg
3  CCOC(=O)Oc1cc(OC)cc(OC)c1C(=O)/C=C/c1ccc(OC)cc1  LD50 at 504 h     > 4000 mg/kg
4  CCCOc1ccc(/C=C/C(=O)c2c(OC)cc(OC)cc2OC(=O)CC)cc1  LD50 at 504 h     > 5000 mg/kg

###

tested on: rhinovirus HGP; test: Inhibition of viral cytopathogenic effect (c.p.e.) of rhinovirus HGP in HeLa cells; format: cell-based, human rhinoviruses; conditions: Enterovirus, HeLa, 48 h, read-out: IC50 against rhinovirus HGP (concentration inhibiting the viral c.p.e. by 50%)
MEASURE: IC50

>>> print(df.to_string())
                                    molecule          target       recorded_result
 0  COc1cc(O)c(C(=O)/C=C/c2ccc(O)cc2)c(OC)c1 [2',4-dihydroxy-4',6'-dimethoxychalcone]  rhinovirus HGP        0.3 to 1 µg/mL
 1  C=CCOc1ccc(/C=C/C(=O)c2c(OC)cc(OC)cc2OC(=O)CC)cc1  rhinovirus HGP     0.03 to 0.1 µg/mL
 2  COc1ccc(/C=C/C(=O)c2c(OC)cc(OC)cc2OC(=O)c2cccnc2)cc1  rhinovirus HGP   0.01 to 0.025 µg/mL
 3  CCCOc1ccc(/C=C/C(=O)c2c(OC)cc(OC)cc2OC(=O)CC)cc1  rhinovirus HGP      0.1 to 0.3 µg/mL
 4  CCC(=O)Oc1cc(OC)cc(OC(C)C)c1C(=O)/C=C/c1ccc(OC)cc1  rhinovirus HGP    0.01 to 0.03 µg/mL
 5  CCOc1ccc(/C=C/C(=O)c2c(O)cc(OCC)cc2OC)cc1  rhinovirus HGP   0.006 to 0.02 µg/mL
 6  CCOc1cc(OC)cc(OC(=O)CC)c1C(=O)/C=C/c1ccc(OC)cc1  rhinovirus HGP    0.02 to 0.06 µg/mL
 7  COc1cc(O)c(C(=O)/C=C/c2ccccc2)c(OC)c1 [2'-hydroxy-4',6'-dimethoxychalcone]  rhinovirus HGP      0.1 to 0.3 µg/mL
 8  COc1ccc(/C=C/C(=O)c2ccc(OC)cc2O)cc1 [2'-hydroxy-4,4'-dimethoxychalcone]  rhinovirus HGP        0.3 to 1 µg/mL
 9   CCC(=O)Oc1cc(OC)cc(OC)c1C(=O)C=Cc1cccs1  rhinovirus HGP      0.1 to 0.3 µg/mL
10  COc1cc(O)c(C(=O)/C=C/c2ccc(OC)c(OC)c2)c(OC)c1  rhinovirus HGP      0.1 to 0.3 µg/mL
11  CCOc1ccc(/C=C/C(=O)c2c(OC)cc(OC)cc2OC(=O)CC)cc1  rhinovirus HGP     0.03 to 0.1 µg/mL
12  COc1cc(O)c(C(=O)/C=C/c2ccc(Cl)cc2)c(OC)c1  rhinovirus HGP    0.02 to 0.06 µg/mL
13  COc1ccc(/C=C/C(=O)c2c(O)cc(OC)cc2OC(C)C)cc1  rhinovirus HGP      0.1 to 0.2 µg/mL
14  COc1cc(O)c(C(=O)/C=C/c2cccc(OC)c2O)c(OC)c1  rhinovirus HGP     0.15 to 0.5 µg/mL
15  CCOc1cc(O)c(C(=O)/C=C/c2ccc(OC)cc2)c(OCC)c1  rhinovirus HGP     0.03 to 0.1 µg/mL
16  CCOc1cc(O)c(C(=O)/C=C/c2ccc(OC)cc2)c(OC)c1  rhinovirus HGP  0.002 to 0.006 µg/mL
17  CCC(=O)Oc1cc(OC)cc(OC)c1C(=O)/C=C/c1ccccc1  rhinovirus HGP        0.3 to 1 µg/mL
18  COc1ccc(/C=C/C(=O)c2c(OC)cc(OC)cc2OC(=O)c2cnccn2)cc1  rhinovirus HGP     0.03 to 0.1 µg/mL
19  CCC(=O)Oc1cc(OC)cc(OC)c1C(=O)/C=C/c1ccc(SC)cc1  rhinovirus HGP     0.03 to 0.1 µg/mL
20   CCOc1cc(O)c(C(=O)C=Cc2ccc(C)o2)c(OCC)c1  rhinovirus HGP    0.04 to 0.12 µg/mL
21  COc1ccc(/C=C/C(=O)c2c(OC)cc(OC)cc2OC(C)=O)cc1  rhinovirus HGP           0.006 µg/mL
22  CCCCCCCCCCCCCCCCCC(=O)Oc1cc(OC)cc(OC)c1C(=O)/C=C/c1ccc(OC)cc1  rhinovirus HGP     0.05 to 0.1 µg/mL
23  COc1cc(/C=C/C(=O)c2c(O)cc(OC)cc2OC)cc(OC)c1  rhinovirus HGP             0.3 µg/mL
24  COc1ccc(/C=C/C(=O)c2c(OC)cc(OC)cc2OC(=O)C(C)(C)C)cc1  rhinovirus HGP    0.01 to 0.03 µg/mL
25  CCOc1ccc(/C=C/C(=O)c2c(O)cc(OCC)cc2OCC)cc1  rhinovirus HGP            0.25 µg/mL
26  COc1cc(O)c(C(=O)/C=C/c2cccc(OC)c2OC)c(OC)c1  rhinovirus HGP             0.1 µg/mL
27  CCC(=O)Oc1cc(OC)cc(OC)c1C(=O)/C=C/c1ccc(OC)cc1  rhinovirus HGP            0.01 µg/mL
28  COc1cc(O)c(C(=O)/C=C/c2ccc(C#N)cc2)c(OC)c1  rhinovirus HGP             0.3 µg/mL
